- test.name: in vivo
- recorded.conditions: mouse, in vivo, ip, 1 mg/kg, Plasma concentration of vincristine
attribute.measured: concentration at 0.25 h (ng/mL)
Provide the reading as a plain figure in ng/mL.

Please report the recorded concentration at 0.25 h for CC[C@]1(O)C[C@H]2CN(CCc3c([nH]c4ccccc34)[C@@](C(=O)OC)(c3cc4c(cc3OC)N(C=O)[C@H]3[C@@](O)(C(=O)OC)[C@H](OC(C)=O)[C@]5(CC)C=CCN6CC[C@]43[C@@H]65)C2)C1 .
735

###

- test.name: Plasma pharmacokinetics of vincristine in mice
- recorded.conditions: DBA/1LacJ, mouse, in vivo, Plasma concentration of vincristine, OATP1B2(-/-) + Nilotinib (100 mg/kg pretreatment); vincristine 1 mg/kg; 0.5 h
attribute.measured: concentration at 0.5 h

Please report the recorded concentration at 0.5 h for CC[C@]1(O)C[C@H]2CN(CCc3c([nH]c4ccccc34)[C@@](C(=O)OC)(c3cc4c(cc3OC)N(C=O)[C@H]3[C@@](O)(C(=O)OC)[C@H](OC(C)=O)[C@]5(CC)C=CCN6CC[C@]43[C@@H]65)C2)C1 .
225 ng/mL
